Where these numbers come from: patent US20230321251A1

protocolNotes: Tissue distribution test (plasma, liver, kidney, lung)
experimentalConditions: ICR, mouse, in vivo, iv, 5 mg/kg, Lung Kp, lung/plasma concentration ratio, ICR mice, 2 hours

# compound, Kp at 2 h
rows = [
    ("CCCCCCCCCCNCCN[C@@]1(C)C[C@H](O[C@H]2[C@H](Oc3c4cc5cc3Oc3ccc(cc3Cl)[C@@H](O)[C@@H]3NC(=O)[C@H](NC(=O)[C@@H]5NC(=O)[C@H](CC(N)=O)NC(=O)C(NC(=O)[C@@H](CC(C)C)NC)[C@H](O)c5ccc(c(Cl)c5)O4)c4ccc(O)c(c4)-c4c(cc(O)c(CNCP(=O)(O)O)c4O)[C@@H](C(=O)O)NC3=O)O[C@H](CO)[C@@H](O)[C@@H]2O)O[C@@H](C)[C@H]1O (stereo partly shown)", 0.37),
]
